Values compiled from patent US6531296B1.

Test system: CSK (p50csk)
Assay: In vitro kinase assay: phosphorylation of Rak carboxy-terminal peptides by CSK
Type: biochemical
Details: relative to wild-type peptide for the mutants

molecule | phosphorylation by CSK
mutant at position 450: 62-amino-acid carboxy-terminal Rak peptide with tyrosine 450 mutated to phenylalanine (protein, UniProt P42685 444-505, looked up, variant Y450F, C-terminal 62 residues His tag, 62-amino-acid carboxy-terminal Rak peptide with tyrosine 450 mutated to phenylalanine) QMLAQNFRLPQPSNCPQQFYNIMLECWNAEPKERPTFETLRWKLEDYFETDSSYSDANNFIR | about one-half
mutant at position 490: 62-amino-acid carboxy-terminal Rak peptide with tyrosine 490 mutated to phenylalanine (protein, UniProt P42685 444-505, looked up, variant Y490F, C-terminal 62 residues His tag, 62-amino-acid carboxy-terminal Rak peptide with tyrosine 490 mutated to phenylalanine) QMLAQNYRLPQPSNCPQQFYNIMLECWNAEPKERPTFETLRWKLEDFFETDSSYSDANNFIR | about one-half
